experiment: Rat pharmacokinetics, intravenous administration; assay type: in vivo; conditions: rat, plasma, iv, 5 mg/kg, Rat 1
endpoint_label: Cmax (µM)
Output spec: scalar in µM, unitless text.

QUERY: Look up Cmax: O=C(Nc1ccc2sc(-c3ccc(F)c(F)c3)nc2c1)N1CC[C@H](F)C1 [Compound 1]
RESULT: 12.1

---

assay: Rat pharmacokinetics, intravenous administration; type: in vivo; conditions: rat, plasma, iv, 5 mg/kg, Rat 2, read-out: Plasma Vz
endpoint_label: Vd (L/kg)
Output spec: scalar in L/kg, unitless text.

QUERY: Look up Vd: O=C(Nc1ccc2sc(-c3ccc(F)c(F)c3)nc2c1)N1CC[C@H](F)C1
RESULT: 0.639

---

assay: Rat pharmacokinetics, intravenous administration; type: in vivo; conditions: rat, plasma, iv, 5 mg/kg, Rat 2
endpoint_label: Cmax (µM)
Output spec: scalar in µM, unitless text.

QUERY: Look up Cmax: O=C(Nc1ccc2sc(-c3ccc(F)c(F)c3)nc2c1)N1CC[C@H](F)C1
RESULT: 11.3

---

assay: Rat pharmacokinetics, intravenous administration; type: in vivo; design: unit not given here; conditions: rat, in vivo, iv, 5 mg/kg, Rat 1
endpoint_label: AUC(0-inf)
Give the figure by itself; no unit, no explanation.

QUERY: Look up AUC(0-inf): O=C(Nc1ccc2sc(-c3ccc(F)c(F)c3)nc2c1)N1CC[C@H](F)C1
RESULT: 1380

---

test: Distribution between mouse plasma and brain (brain penetration, ip); assay type: in vivo; conditions: Table 14; mice, single ip dose 5 mg/kg, one hour post-dose; ± SEM of 3 mice (compound 3: 6 mice)
Note to self: [compound]Brain under 9 µM means y, ties and anything higher get n.

O=C(Nc1ccc2sc(-c3ccc(F)c(F)c3)nc2c1)N1CCC(F)(F)C1 ... n
O=C(Nc1ccc2sc(-c3ccccc3)nc2c1)N1CCCC1 ... y
O=C(Nc1ccc2sc(-c3ccc(F)c(F)c3)nc2c1)N1CCCCC1 ... y

QUERY: Please determine if O=C(Nc1ccc2sc(-c3ccc(F)c(F)c3)nc2c1)N1C[C@@H](F)[C@H](F)C1 is below 9 µM in terms of [compound]Brain.
RESULT: n

---

assay: Distribution between mouse plasma and brain (brain penetration, ip); type: in vivo; settings: mouse, brain, intraperitoneal, 5 mg/kg; Table 7; groups of 3 mice; read-out: Average [compound] brain
Listing of entries alongside the reported concentration at 1 h.
Output spec: scalar in nM, unitless text.

QUERY: Look up concentration at 1 h: O=C(Nc1ccc2sc(-c3cccc(F)c3F)nc2c1)N1CCCC1 [Compound 5]
RESULT: 2310

QUERY: How about O=C(Nc1ccc2sc(-c3cccc(F)c3)nc2c1)N1CCCC1 [Compound 6] ?
RESULT: 2280

QUERY: How about O=C(Nc1ccc2sc(-c3ccccc3)nc2c1)N1CCCC1 [Compound 7] ?
RESULT: 4240

QUERY: How about O=C(Nc1ccc2oc(-c3ccccc3)nc2c1)N1CCCC1 [Compound 8, 2-Phenyl-5-N-pyrrolidylamidobenzoxazole] ?
RESULT: 397

QUERY: How about O=C(Nc1ccc2sc(-c3ccc(F)c(F)c3)nc2c1)N1CCCC1 [Compound 2] ?
RESULT: 4250

---

experiment: Distribution between mouse plasma and brain (brain penetration, ip); format: in vivo; conditions: Table 14; mice, single ip dose 5 mg/kg, one hour post-dose; ± SEM of 3 mice (compound 3: 6 mice)
Listing of entries alongside the reported [compound]Brain.
Output spec: scalar in µM, unitless text.

# annotated cases, reported [compound]Brain shown
O=C(Nc1ccc2sc(-c3ccc(F)c(F)c3)nc2c1)N1CCC(F)CC1 ... 2.52
O=C(Nc1ccc2sc(-c3cccc(F)c3F)nc2c1)N1CCCC1 ... 2.31

Now let's try a different one.
QUERY: Look up [compound]Brain: O=C(Nc1ccc2oc(-c3ccccc3)nc2c1)N1CCCC1
RESULT: 0.397

---

tested on: human lymphocytes CRL-8155; assay: Cytotoxicity against CRL-8155 cells; conditions: read-out: CRL-8155 EC50; concentration required to inhibit growth by 50%; human lymphoblasts
pEC50: −log10 of the molar value.
Listing of entries alongside the reported pEC50.

# annotated cases, reported pEC50 shown
O=C(Nc1ccc2sc(-c3ccc(F)c(F)c3)nc2c1)N1C[C@@H](F)[C@H](F)C1 [Compound 35] ... 4.57
O=C(Nc1ccc2sc(-c3cccc(F)c3)nc2c1)N1CCCCC1 [Compound 29] ... < 4.30

QUERY: Hi! What's the reported pEC50 for O=C(Nc1ccc2sc(-c3ccccc3)nc2c1)N1CCCC1 [Compound 7] on human lymphocytes CRL-8155?
RESULT: < 4.30

QUERY: How about O=C(Nc1ccc2sc(-c3ccc(F)c(F)c3)nc2c1)N1CCCCC1 [Compound 12] ?
RESULT: < 4.30

QUERY: How about O=C(Nc1ccc2sc(-c3ccc(F)c(F)c3)nc2c1)N1CC[C@@H](F)C1 [Compound 4] ?
RESULT: < 4.30

QUERY: How about O=C(Nc1ccc2sc(-c3ccc(F)c(F)c3)nc2c1)N1CCC(F)CC1 [Compound 13] ?
RESULT: < 4.30

QUERY: How about O=C(Nc1ccc2sc(-c3ccc(F)cc3)nc2c1)N1CCCCC1 [Compound 27] ?
RESULT: < 4.30

QUERY: How about O=C(Nc1ccc2sc(-c3ccc(F)c(F)c3)nc2c1)N1CCC(F)C1 (racemic) [Compound 3] ?
RESULT: < 4.30

QUERY: How about N=C(N)c1ccc(OCCCCCOc2ccc(C(=N)N)cc2)cc1 [penth, Pentamidine, reference compound] ?
RESULT: 4.34

QUERY: How about O=C(Nc1ccc2sc(-c3ccc(F)cc3)nc2c1)N1CCCC1 [Compound 26] ?
RESULT: < 4.30

---

assay: Metabolic stability in mouse liver microsomes; format: in vitro ADME; details: Table 12; 37° C., NADPH (1 mM), microsomes 0.5 mg/mL, test compounds 1.5 μM
endpoint_label: Mouse microsomes t1/2 (min)
Output spec: scalar in min, unitless text.

# annotated cases, reported Mouse microsomes t1/2 shown
O=C(Nc1ccc2sc(-c3cccc(F)c3)nc2c1)N1CCCCC1 ... 11
O=C(Nc1ccc2oc(-c3ccccc3)nc2c1)N1CCCCC1 ... 11
O=C(Nc1ccc2sc(-c3ccccc3)nc2c1)N1CCCCC1 ... 17
O=C(Nc1ccc2sc(-c3ccccc3)nc2c1)N1CCCC1 ... 18
O=C(Nc1ccc2oc(-c3ccccc3)nc2c1)c1ccccc1 ... 17
O=C(Nc1ccc2sc(-c3cccc(F)c3)nc2c1)N1CCCC1 ... 12

Now let's try a different one.
QUERY: Look up Mouse microsomes t1/2: O=C(Nc1ccc2sc(-c3ccc(F)c(F)c3)nc2c1)N1CCCC1
RESULT: 14
